# credit: PubChem BioAssay (NCI)

- System: DU-145 prostate
- assay-comment: NCI-60 one-dose screen, 48 h (100 = growth as untreated, 0 = no growth, -100 = all killed)
- details: 10 µM unless noted
The panel holds about 83,000 compounds, 20% with a hit somewhere; the sample as a whole holds those more often. The source made the active and inactive calls. The calls were made as follows: active = growth percent below 10; inactive = the rest.
measured-parameter: growth

• O=c1oc2ccc(I)cc2c(=O)n1-c1ccc(Br)cc1F = 16.6% (inactive)
• NS(=O)(=O)c1ccc(CCN=C=S)cc1 = 6.92% (active)
• COc1ccc(-n2c(C(O)c3ccccc3)nn(CN3CCOCC3)c2=S)cc1 (stereo not given) = 109% (inactive)
• CCOc1cc(Cl)c(C(C)NC(=O)c2cccc(OC)c2)cc1OCC (stereo not given) = -21.7% (active)
• CCCC(c1nnnn1C1CCCCC1)N1CCN(C(=O)c2ccco2)CC1 (stereo not given) = 69.7% (inactive)
• Cc1sc2ncn(CC(=O)Nc3ccc(S(N)(=O)=O)cc3)c(=O)c2c1C = 112% (inactive)
• O=C(N=Nc1c(O)[nH]c2ccccc12)c1oc2ccccc2c1CN1CCN(c2ccccc2)CC1 = -34.2% (active)
• CN1C(=O)N(C)C2(c3ccccc3)n3c(s/c(=C\c4ccccc4)c3=O)=NNC12c1ccccc1 (stereo not given) = 93% (inactive)
• Cc1[nH]c2ccccc2c(=O)c1CC=C(Cl)Cl = -22.5% (active)
• CC1CCCCN1CCCNC(=O)c1ccc2c(c1)sc1nc(-c3ccc(F)cc3)cn12 (stereo not given) = 105% (inactive)
